Protocol Summary: Metabolic stability in rat liver microsomes assessed as half life
Assay type: ADME, Microsome
Residues, ends and D or L forms follow the SMILES beside them. *: point of attachment. X1 = Cc1ccc(-n2nc3c(=O)n(CCCC(=O)*)nc(C)c3c2C)cc1; Aoc = NCCCCCCCC(=O)O
Experimental Readout: half-life (min)
Supply the numeric figure in min, leaving out any unit text.

query: # half-life lookup, item Cc1ccc(-n2nc3c(=O)n(CCCC(=O)NCCCCCCCC(=O)NCC(=O)NCC(=O)NCC(=O)N[C@@H](CCCNC(=N)N)C(=O)N[C@@H](CCCNC(=N)N)C(=O)N[C@@H](CCCNC(=N)N)C(=O)N[C@@H](CCCNC(=N)N)C(=O)N[C@@H](CCCNC(=N)N)C(=O)N[C@@H](CCCNC(=N)N)C(=O)N[C@@H](CCCNC(=N)N)C(=O)N[C@@H](CCCNC(=N)N)C(=O)N[C@@H](CCCNC(=N)N)C(=O)N[C@@H](CC(N)=O)C(=O)N4CCC[C@H]4C(=O)NCC(=O)N[C@@H](Cc4ccc(O)cc4)C(N)=O)nc(C)c3c2C)cc1 ({X1-Aoc}-GGGRRRRRRRRRNPGY-NH2)
result: 33.5
